System: NCI-H23 lung
Experiment: NCI-60 one-dose screen, 48 h (100 = growth as untreated, 0 = no growth, -100 = all killed)
Details: 10 µM unless noted
Compounds without any hit were thinned out: in the full panel of roughly 83,000, 20% have a hit.
growth under 90% gets Criterion met, anything at or over 90% gets Criterion not met.

CC(=Nc1ccccc1)C1=C(O)C(Cc2ccc(F)cc2)NC1=O (centres undefined) = Criterion met
COc1ccc2sc(N(Cc3cccnc3)C(=O)c3ccc(C#N)cc3)nc2c1 = Criterion not met
O=c1oc2ccc(F)cc2c(=O)n1-c1ccc(F)cc1F = Criterion met
O=c1c2cc(F)ccc2sc2c(NCCN3CCCC3)nc3ccccc3c12 = Criterion met
Cc1sc2ncn(CC(=O)Nc3ccc(S(N)(=O)=O)cc3)c(=O)c2c1C = Criterion not met
O=Cc1c(OCc2cnnn2CC(=O)Nc2ccc(Cl)cc2)ccc2ccccc12 = Criterion not met
O=C(CSc1nc2ccccc2c(=O)n1-c1ccccc1)Nc1ccc(C(=O)/C=C/c2ccc(Cl)cc2)cc1 = Criterion not met
COc1ccc(Cn2c(Br)c3c(c2-c2cc(OC)c(OC)c(OC)c2)CCc2sc(NC(C)=O)nc2-3)cc1 = Criterion met
COC(=O)c1c2c(c(C)[n+]([O-])c1C)C(=O)C(NCc1ccc(F)c(F)c1)=CC2=O = Criterion met
O=C1c2cc(Br)ccc2Oc2cc([N+](=O)[O-])ccc2N1c1ccc(I)cc1F = Criterion not met
COc1ccc(OC)c(/C=C/C(=O)c2c(C)nc3ccccc3c2/C=C/c2ccccc2)c1 = Criterion met
Nc1nc(N)c2c(n1)NC1(C=C(O)c3ccccc31)C1=C(N2)c2ccccc2C1=O (centres undefined) = Criterion not met
Cn1c(/C=C(\C#N)c2cccc(C(F)(F)F)c2)nc2c(N3CCOCC3)nc(Cl)nc21 = Criterion met
COc1ccc(C(=O)Nc2ccc3nc(N4CCCCC4)cc(C)c3c2)cc1OC = Criterion not met
O=C(NC1CCCCC1)C(c1cccs1)N(CCc1ccccc1)C(=O)c1ccco1 (centres undefined) = Criterion met
COc1cc(C2C(C#N)=C(N)OC3=C2C(=O)c2ccccc2C3=O)cc(OC)c1O (centres undefined) = Criterion met
O=C(c1nc2ccccc2[nH]1)C1C(c2ccc([N+](=O)[O-])cc2)C2CC3CCCCC3N2[C@@]12C(=O)Nc1cc(Cl)ccc12 (some centres undefined) = Criterion met
O=C(Nc1ccc(N2CCNCC2)cc1)c1[nH]ncc1Nc1ncnc2sc3c(c12)CCC3 = Criterion met

====

Tested on: DU-145 prostate
Assay: NCI-60 one-dose screen, 48 h (100 = growth as untreated, 0 = no growth, -100 = all killed)
Conditions: 10 µM unless noted
About 83,000 compounds went through this panel and 20% of them were active in at least one assay; those are over-represented in the sample as a whole.
Property: growth (%)

COc1cc(/C=C/C(=O)c2ccc(Nc3nc(NCCO)nc(N4CCOCC4)n3)cc2)cc(OC)c1OC = 17.9
COc1ccc(OC)c(/C=C/C(=O)c2c(C)nc3ccccc3c2/C=C/c2ccccc2)c1 = 54.2
Cn1c(/C=C(\C#N)c2ccccc2)nc2c(N3CCOCC3)nc(Cl)nc21 = -72.4
FC(F)(F)c1cccc(Nc2nc(-c3ccccc3)nc3ncccc23)c1 = 75.1
CSc1nc2c(c(=O)[nH]1)N=C1c3ccccc3C(=O)C1C(c1ccc(F)cc1)N2 (configuration not stated) = 103
COc1cc(C=C2C(=O)N(C)C(=O)N(C)C2=O)cc(CN2CCCCC2)c1O = 104
COc1ccc(CCN2C(=O)/C(=C/c3ccc(C4Oc5ccccc5C5CC(c6cccc(OC)c6)=NN54)cc3)SC2=S)cc1 (configuration not stated) = 101
Cc1cc2c(c(C)c1Cl)C(=O)/C(=C/c1ccco1)O2 = 103
Brc1ccc(Oc2ccc(Nc3ncnc4onc(-c5ccccc5)c34)cc2)cc1 = 102
CCOC(=O)c1sc(-c2ccc(OS(=O)(=O)c3ccccc3[N+](=O)[O-])c(C=O)c2)nc1C = 78.1
Cc1cc(Nc2ccc(OCc3ccccc3)cc2)nc2cc(O)ccc12 = 86.4
CCOc1cccc(/C=N\Nc2nc(=O)cc(C(=O)OC)s2)c1O = 103
O=Nc1c(O)ccc2ccccc12.O=Nc1c(O)ccc2ccccc12.O=Nc1c([O-])ccc2ccccc12.[Fe+3] = 125
Cc1c(C(=O)OCCO)cc(-c2ccc(Cl)cc2)n1-c1ccc(Cl)cc1Cl = 62.9
CCOc1ccccc1CN1CCc2nc3cc(C(C)(C)C)[nH]n3c(=O)c2C1 = 115
Cc1ccc(NCCNCC(O)CO)c2c(=O)c3ccccc3sc12 (configuration not stated) = 11.9
COc1cc2nc(-c3cnc(N(C)C)nc3)nc(NC3CCN(Cc4ccccc4)CC3)c2cc1OC = -83.9
CC(=O)c1ccc2oc(=O)n(Cc3ccc(C#N)cc3)c(=O)c2c1 = 111
CCCCCCC(O)(c1ccc(F)cc1)C(CN1CCOCC1)c1ccccc1 (configuration not stated) = 51.7
COc1ccc(/C=C/C(=O)c2c(C)nc3ccccc3c2/C=C/c2ccccc2)c(OC)c1 = 90.4
CN(C)CCCNCc1ccc(-c2ccc(F)c(Cl)c2)o1 = 19.7
Cc1cc2c(c(C)c1Cl)C(=O)/C(=C/c1cccc([N+](=O)[O-])c1)O2 = 104
CN(C)CCNc1cc(-c2ccccc2)nc2ccccc12 = -62.1
COc1ccc(C2C3=C(COC3=O)N(CCO)c3cc4c(cc32)OCCO4)cc1 (configuration not stated) = 106
CCCCc1c(CCC)c(=N)c2ccccc2n1C = 79.9
CCCCOCc1cc(CN2CCN(C)CC2)c(O)c2ncccc12 = 63.9
CN(C)c1ccc(N=Cc2ccc(N3CCOCC3)cc2)cc1 = 99.6
CC[C@H](C)[C@@H](C(=O)OC)n1cc(CNC(=O)[C@@H](Cc2ccccc2)NC(=O)OCc2ccccc2)nn1 = 104
O=C(CSc1ncccc1C(=O)O)Nc1ccc(Oc2ccccc2)cc1 = 110
CCOc1ccc2nc(C)cc(Nc3ccc(Br)cc3)c2c1 = 110
N#C/C(=C\c1c(-c2ccccc2)[nH]c2ccccc12)C(=O)c1ccccc1 = 31.7
COC(=O)c1ccc(NC(=O)CSc2nc3ccccc3c(=O)n2-c2ccccc2)cc1 = 108

====

Tested on: MDA-MB-231 breast
Assay: NCI-60 one-dose screen, 48 h (100 = growth as untreated, 0 = no growth, -100 = all killed)
Conditions: 10 µM unless noted
The panel holds about 83,000 compounds, 20% with a hit somewhere; the sample as a whole holds those more often.
Property: growth (%)

COc1cc(/C=C2\Oc3cc(OCCCN4CCCC4)ccc3C2=O)cc(OC)c1 = 53.7
O=C1C(Cl)=C(NCc2ccco2)C(=O)c2ccccc21 = 68.1
COc1ccc(CCN2C(=O)CCSC2=S)cc1 = 59.2
CC1CCCCN1CCCNC(=O)c1ccc2c(c1)sc1nc(-c3ccc(F)cc3)cn12 (stereo not given) = 75.2
CC(=O)c1ccc(Cc2ccc(C(C)=O)s2)s1 = 99.8
O=C1/C(=C\c2ccc[nH]2)c2ccccc2N1c1ccccc1 = 84.4
COc1ccc(C2=NN(/C=C3\SC(=O)NC3=Nc3ccc(F)cc3)C(c3ccc(F)cc3)C2)cc1 (stereo not given) = 93.8
CN1C(=O)N(C)C2(c3ccccc3)n3c(s/c(=C\c4ccccc4)c3=O)=NNC12c1ccccc1 (stereo not given) = 85.1
O=c1[nH]nnc2c1ncn2C1OC(CO)C(O)C1O (stereo not given) = 55.2
CCOC(=O)c1cc2c(n1Cc1ccccc1)-c1oncc1CCC2 = 74.4
O=C(c1nc2ccccc2[nH]1)C1[C@@H](c2cccc(O)c2)C2CC3CCCCC3N2[C@@]12C(=O)Nc1cc(Cl)ccc12 (stereo not given in full) = 34.7
CCOC(=O)c1ccc2[nH]c(-c3ccccc3)cc(=O)c2c1 = 94.5
COc1ccc(C2C3=C(COC3=O)N(CCO)c3cc4c(cc32)OCCO4)cc1 (stereo not given) = 91.2
Clc1ccc(Nc2nnc(-c3ccc4c(c3)OCO4)o2)cc1 = 108
O=C(c1nc2ccccc2[nH]1)C1C(c2cccc([N+](=O)[O-])c2)C2CC3CCCCC3N2[C@@]12C(=O)Nc1cc(Cl)ccc12 (stereo not given in full) = 18.6
O=C(c1ccccc1)N(C(=S)NCCc1ccc(Cl)cc1)c1ccccc1 = 112
COc1cc(C2C3=C(COC3=O)N(CCO)c3cc4c(cc32)CCC4)cc(OC)c1O (stereo not given) = 18
O=S(=O)(Nc1ncccn1)c1ccc(NC2Nc3nc4ccccc4nc3S2)cc1 (stereo not given) = 99.3
COC(=O)/C(CCC=C(C)C)=C1\[C@@H](OC(C)=O)C[C@@]2(C)[C@H]1C[C@@H](O)[C@H]1[C@@]3(C)CC[C@H](NCCO)[C@@H](C)[C@@H]3CC[C@@]12C = 106
COc1ccc(C(=O)C2CC2c2ccc(Cl)cc2)cc1 (stereo not given) = 86.4
